Record type: pIC50 measurement. Applies to: UniProt:Q9BY41
Sequence (Q9BY41 whole entry): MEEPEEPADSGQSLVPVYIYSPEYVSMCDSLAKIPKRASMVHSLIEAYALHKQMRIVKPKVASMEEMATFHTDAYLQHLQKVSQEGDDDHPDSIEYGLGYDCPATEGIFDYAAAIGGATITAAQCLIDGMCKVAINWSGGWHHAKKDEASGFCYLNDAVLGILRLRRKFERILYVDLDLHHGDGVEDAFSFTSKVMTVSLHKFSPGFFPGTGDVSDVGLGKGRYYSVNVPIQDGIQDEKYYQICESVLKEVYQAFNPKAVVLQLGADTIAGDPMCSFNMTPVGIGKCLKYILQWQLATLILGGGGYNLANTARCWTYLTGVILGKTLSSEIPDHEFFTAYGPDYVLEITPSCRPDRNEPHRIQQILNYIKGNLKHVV
pIC50: −log10 of the molar value.
readoutKind: pIC50

>>> result("O=C(NO)c1ccc(CN2CCC(CNC3(c4ccccc4)CC3)CC2)cc1")
6.35
>>> result("O=C(NO)c1ccc(CN2CCC(CN[C@@H]3C[C@H]3c3ccccc3)CC2)cc1 (relative stereo)")
6.54

====

- systemTested: N-ter-GST-HDAC-6 (Homo sapiens)
- Sequence (Q9UBN7 1-1215): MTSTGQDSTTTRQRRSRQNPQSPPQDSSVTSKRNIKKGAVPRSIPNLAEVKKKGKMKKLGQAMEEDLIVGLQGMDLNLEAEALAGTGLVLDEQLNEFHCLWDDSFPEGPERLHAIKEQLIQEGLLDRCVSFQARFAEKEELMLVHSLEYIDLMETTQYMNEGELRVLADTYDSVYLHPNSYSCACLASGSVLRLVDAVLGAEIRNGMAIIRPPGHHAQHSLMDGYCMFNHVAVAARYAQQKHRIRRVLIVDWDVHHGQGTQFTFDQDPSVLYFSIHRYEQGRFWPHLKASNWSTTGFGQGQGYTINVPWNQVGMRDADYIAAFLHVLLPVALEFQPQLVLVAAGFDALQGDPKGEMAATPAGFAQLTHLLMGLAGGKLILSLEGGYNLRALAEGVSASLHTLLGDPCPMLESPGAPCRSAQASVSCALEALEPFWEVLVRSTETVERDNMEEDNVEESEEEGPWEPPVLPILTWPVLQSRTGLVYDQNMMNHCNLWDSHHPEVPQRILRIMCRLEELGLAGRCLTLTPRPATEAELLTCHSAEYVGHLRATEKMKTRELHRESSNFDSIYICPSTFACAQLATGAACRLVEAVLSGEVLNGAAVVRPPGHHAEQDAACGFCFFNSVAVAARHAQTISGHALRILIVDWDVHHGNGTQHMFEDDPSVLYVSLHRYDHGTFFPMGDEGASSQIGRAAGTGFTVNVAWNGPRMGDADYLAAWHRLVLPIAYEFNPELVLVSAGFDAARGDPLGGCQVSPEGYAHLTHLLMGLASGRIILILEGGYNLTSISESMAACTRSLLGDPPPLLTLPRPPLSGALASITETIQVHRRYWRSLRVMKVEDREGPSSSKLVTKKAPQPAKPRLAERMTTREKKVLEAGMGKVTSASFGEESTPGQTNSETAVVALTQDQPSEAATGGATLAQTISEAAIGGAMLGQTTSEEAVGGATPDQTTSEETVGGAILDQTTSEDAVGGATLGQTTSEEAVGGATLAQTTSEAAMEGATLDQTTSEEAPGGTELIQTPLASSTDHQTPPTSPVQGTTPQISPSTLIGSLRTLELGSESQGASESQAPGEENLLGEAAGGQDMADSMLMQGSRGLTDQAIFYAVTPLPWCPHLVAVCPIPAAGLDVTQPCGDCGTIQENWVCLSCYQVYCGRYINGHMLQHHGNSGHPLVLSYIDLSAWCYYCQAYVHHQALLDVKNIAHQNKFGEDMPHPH
pIC50: −log10 of the molar value.
Quick list: pIC50 per entry.
readoutKind: pIC50

>>> result("O=C(O)c1ccc(CN2CCC(CN[C@@H]3C[C@H]3c3ccccc3)CC2)cc1 [GSK2879552, reference compound]")
"< 4.00"
>>> result("O=C(O)c1ccc(CN2CCC(CNC3(c4ccccc4)CC3)CC2)cc1")
"< 4.00"

====

- systemTested: Human recombinant C-ter-His-FLAG-HDAC1 (Homo sapiens, UniProt Q13547)
- Construct: His (C); FLAG (C)
- Sequence (Q13547 whole entry): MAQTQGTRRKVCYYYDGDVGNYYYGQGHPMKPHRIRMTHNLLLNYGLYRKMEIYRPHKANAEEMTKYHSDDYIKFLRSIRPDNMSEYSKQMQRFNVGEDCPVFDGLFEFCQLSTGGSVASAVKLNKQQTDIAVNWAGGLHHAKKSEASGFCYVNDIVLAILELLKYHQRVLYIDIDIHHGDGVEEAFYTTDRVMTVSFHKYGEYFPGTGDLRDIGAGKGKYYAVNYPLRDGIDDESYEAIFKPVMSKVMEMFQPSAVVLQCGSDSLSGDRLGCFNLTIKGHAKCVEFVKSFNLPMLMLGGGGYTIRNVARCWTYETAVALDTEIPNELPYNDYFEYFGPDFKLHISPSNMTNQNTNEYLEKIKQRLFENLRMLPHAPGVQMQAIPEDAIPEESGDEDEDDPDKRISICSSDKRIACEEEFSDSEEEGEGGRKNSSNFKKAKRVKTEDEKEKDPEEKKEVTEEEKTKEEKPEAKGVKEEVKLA
- methodDescription: HDAC-Glo I/II enzyme assay, HDAC1
- condition: ± standard error, three independent measurements
pIC50: −log10 of the molar value.
readoutKind: pIC50

>>> result("O=C(NO)c1ccc(CN2CCC(CNC3(c4ccccc4)CC3)CC2)cc1 [iHDAC6]")
5.12
>>> result("O=C(NO)c1ccc(CN2CCC(CN[C@@H]3C[C@H]3c3ccccc3)CC2)cc1 (relative stereo) [iDual]")
5.27

====

- systemTested: HDAC-3/NcoR2 (Homo sapiens, UniProt O15379)
- Sequence (O15379 whole entry): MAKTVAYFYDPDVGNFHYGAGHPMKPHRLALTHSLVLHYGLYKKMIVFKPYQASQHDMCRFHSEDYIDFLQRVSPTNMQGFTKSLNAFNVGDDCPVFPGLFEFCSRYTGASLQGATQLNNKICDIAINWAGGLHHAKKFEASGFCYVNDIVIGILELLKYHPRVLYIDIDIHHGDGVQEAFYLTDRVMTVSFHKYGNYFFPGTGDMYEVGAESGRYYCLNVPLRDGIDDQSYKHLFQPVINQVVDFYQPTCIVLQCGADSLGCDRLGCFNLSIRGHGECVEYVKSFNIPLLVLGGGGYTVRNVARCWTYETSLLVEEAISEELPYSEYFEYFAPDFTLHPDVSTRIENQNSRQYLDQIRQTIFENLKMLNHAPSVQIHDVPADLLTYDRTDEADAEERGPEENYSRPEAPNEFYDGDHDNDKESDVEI
- Sequence (Q9Y618 395-489 partner limits assumed): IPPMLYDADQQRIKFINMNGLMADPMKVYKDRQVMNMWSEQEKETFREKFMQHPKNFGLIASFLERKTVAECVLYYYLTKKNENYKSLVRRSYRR
- methodDescription: HDAC-Glo I/II enzyme assay, HDAC3
- condition: ± standard error, three independent measurements
pIC50: −log10 of the molar value.
Quick list: pIC50 per entry.
readoutKind: pIC50

>>> result("O=C(NO)c1ccc(CN2CCC(CNC3(c4ccccc4)CC3)CC2)cc1")
5.39
>>> result("O=C(NO)c1ccc(CN2CCC(CN[C@@H]3C[C@H]3c3ccccc3)CC2)cc1 (relative stereo)")
5.64

====

Quick list: pIC50 per entry.
- Tested on: THP-1
- methodDescription: Cell Titer-Glo cell viability, THP-1
- Assay type: cell-based
- condition: Homo sapiens, THP-1; 120 h, ± standard deviation, three biological repeats; read-out: IC50 cell viability THP-1
pIC50: −log10 of the molar value.
readoutKind: pIC50

>>> result("O=C(NO)c1ccc(CN2CCC(CNC3(c4ccccc4)CC3)CC2)cc1")
5.01
>>> result("O=C(NO)c1ccc(CN2CCC(CN[C@@H]3C[C@H]3c3ccccc3)CC2)cc1 (relative stereo)")
4.79

====

Quick list: IC50 per entry.
- Tested on: Jurkat
- methodDescription: Cell Titer-Glo cell viability, Jurkat
- Type: cell-based
- condition: Homo sapiens, 120 h, ± standard deviation, three biological repeats, read-out: IC50 cell viability Jurkat
readoutKind: IC50 (µM)

>>> result("O=C(NO)c1ccc(CN2CCC(CN[C@@H]3C[C@H]3c3ccccc3)CC2)cc1 (relative stereo)")
15.5
>>> result("O=C(NO)c1ccc(CN2CCC(CNC3(c4ccccc4)CC3)CC2)cc1")
10.7

====

- Test system: K-562
- methodDescription: Cell Titer-Glo cell viability, K-562
- Format: cell-based
- condition: Homo sapiens, K562; 120 h, ± standard deviation, three biological repeats; read-out: IC50 cell viability K-562
pIC50: −log10 of the molar value.
readoutKind: pIC50

>>> result("O=C(NO)c1ccc(CN2CCC(CN[C@@H]3C[C@H]3c3ccccc3)CC2)cc1 (relative stereo)")
4.78
>>> result("O=C(NO)c1ccc(CN2CCC(CNC3(c4ccccc4)CC3)CC2)cc1")
4.75

====

- Tested on: K-562
- methodDescription: Cell Titer-Glo cell viability, K-562
- Type: cell-based
- condition: Homo sapiens, K562, 120 h, read-out: IC50 cell viability K-562
readoutKind: IC50

>>> result("O=C(CCCCCCNC(=O)c1cnc(N(c2ccccc2)c2ccccc2)nc1)NO [ricolinostat, reference compound]")
"2600 nM"

====

- systemTested: LSD1 (Homo sapiens, UniProt O60341)
pIC50: −log10 of the molar value.
readoutKind: pIC50

>>> result("O=C(O)c1ccc(CN2CCC(CN[C@@H]3C[C@H]3c3ccccc3)CC2)cc1 [GSK2879552, reference compound]")
5.81
